// values below are reported IC50
System: CCD-1059Sk (human normal skin fibroblasts)
Experiment: MTT cytotoxicity assay on non-cancerous fibroblasts
Format: cell-based
Conditions: Homo sapiens, CCD-1059Sk, 24 h incubation, non-cancerous cells, read-out: IC50 ± SD, CCD-1059-Sk

* COc1cc([C@@H]2c3cc4c(cc3[C@@H](O[C@@H]3O[C@@H]5CO[C@@H](C)O[C@H]5[C@H](O)[C@H]3O)[C@H]3COC(=O)[C@H]23)OCO4)cc(OC)c1O [Etoposide, etoposide, reference compound] | 83.5 µg/mL
* CN1CCN(c2cc3ccccc3cn2)C1=O [L3] | > 200 µg/mL

INPUT: Please look up its IC50: O=C1CCN1c1cc2ccccc2cn1 [L1, 1-(isoquinolin-3-yl)azetidin-2-one]
OUTPUT: > 200 µg/mL

INPUT: Please look up its IC50: O=C1NCCN1c1cc2ccccc2cn1 [L2, 1-(isoquinolin-3-yl)imidazolidin-2-one]
OUTPUT: > 200 µg/mL

INPUT: Please look up its IC50: CCN1CCN(c2cc3ccccc3cn2)C1=O [L4]
OUTPUT: > 200 µg/mL

----------
Tested on: CCD-1059Sk (human normal skin fibroblasts)
Assay: MTT cytotoxicity assay on non-cancerous fibroblasts
Assay type: cell-based
Conditions: 24 h incubation, non-cancerous cells
// values below are reported IC50 ± SD, CCD-1059-Sk
Hi! Could you send only the number? It should be in µg/mL, unit omitted.

Example cases with answers are listed next.
- CCN1CCN(c2cc3ccccc3cn2)C1=O.[Cl][Cu][Cl]: 18.25
- O=C1CCN1c1cc2ccccc2cn1.O=C1CCN1c1cc2ccccc2cn1.[Cl][Cu][Cl]: 18.83
- CN1CCN(c2cc3ccccc3cn2)C1=O.[Cl][Cu][Cl]: 25.17

Continue with the compound presented below.
INPUT: What IC50 ± SD, CCD-1059-Sk appears in the records for this compound with CCD-1059Sk (human normal skin fibroblasts)? O=C1NCCN1c1cc2ccccc2cn1.O=C1NCCN1c1cc2ccccc2cn1.[Cl][Cu][Cl]
OUTPUT: 21.86

----------
Test system: HepG2 (hepatoma)
Assay: MTT cytotoxicity assay on HepG2 cells
Format: cell-based, human
Settings: Homo sapiens, HepG2; MTT, 24 h incubation; read-out: IC50 ± SD, HepG2
// values below are reported IC50

• CCN1CCN(c2cc3ccccc3cn2)C1=O [L4] = > 200 µg/mL
• O=C1NCCN1c1cc2ccccc2cn1 [L2, 1-(isoquinolin-3-yl)imidazolidin-2-one] = > 200 µg/mL
• CN1CCN(c2cc3ccccc3cn2)C1=O [L3] = > 200 µg/mL
• O=C1CCN1c1cc2ccccc2cn1 [L1, 1-(isoquinolin-3-yl)azetidin-2-one] = > 200 µg/mL

Continue with the molecule presented below.
INPUT: Please look up its IC50: COc1cc([C@@H]2c3cc4c(cc3[C@@H](O[C@@H]3O[C@@H]5CO[C@@H](C)O[C@H]5[C@H](O)[C@H]3O)[C@H]3COC(=O)[C@H]23)OCO4)cc(OC)c1O [Etoposide, etoposide, reference compound]
OUTPUT: 43.2 µg/mL
